Test: Pharmacokinetics of etonogestrel esters after one i.m. injection in rabbits (plasma etonogestrel by LC-MSMS)
Conditions: rabbit, one i.m. injection 20 mg/kg in arachis oil (40 mg/ml)
MEASURE: initial peak level of etonogestrel in plasma (nmol/L)
Value expressed in nmol/L; do not type the unit.

These solved cases illustrate the format of a correct answer.
COMPOUND	QUANTITATIVE RESULT
C#C[C@]1(OC(=O)CCCCCCCCCCC)CC[C@H]2[C@@H]3CCC4=CC(=O)CC[C@@H]4[C@H]3C(=C)C[C@@]21CC [etonogestrel dodecanoate]	9
C#C[C@]1(OC(=O)CCCCCC)CC[C@H]2[C@@H]3CCC4=CC(=O)CC[C@@H]4[C@H]3C(=C)C[C@@]21CC [etonogestrel heptanoate]	120
C#C[C@]1(OC(=O)CCCCCCCCCC)CC[C@H]2[C@@H]3CCC4=CC(=O)CC[C@@H]4[C@H]3C(=C)C[C@@]21CC [etonogestrel undecanoate]	13

Let us examine a further case.
The reported initial peak level of etonogestrel in plasma of the compound C#CC1(OC(=O)CCCCCCCCC)CCC2C3CCC4=CC(=O)CCC4C3C(=C)CC21CC (stereo not shown) [etonogestrel decanoate] was 24
